- TARGET DESC: T1, human TNFα (Tumor Necrosis Factor-alpha), soluble (human, UniProt P01375 77-233)
- T1 construct: Recombinant (R&D 210-TA/CF) in screens; biotinylated in the limited antigen assay; also called hTNFα; H-TNFα
- T1 sequence (P01375 77-233): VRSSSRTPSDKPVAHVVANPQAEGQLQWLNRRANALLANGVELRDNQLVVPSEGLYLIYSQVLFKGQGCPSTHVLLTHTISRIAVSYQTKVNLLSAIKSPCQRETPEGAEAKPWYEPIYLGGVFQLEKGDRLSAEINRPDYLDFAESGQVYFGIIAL
- METHOD SUMMARY: ELISA on chimeric/mutant TNFα
PROPERTY LABEL: binding result

{"BINDER": "313 (antibody, human IgG1, V domains shown, Recombinant human IgG1 kappa; also called 313 Ab; SC313) VH: QVQLVESGGGVVQPGRSLRLSCAASGFTFSNHDIHWVRQAPGKGLEWVAVIWSDGSNKYYADSVKGRFTISRDNSKNTLYLQMNSLRAEDTAVYYCAREKMATIKGYYYYGMDVWGQGTTVTVSS VL: DIQMTQSPSSLSASVGDRVTITCRASQGIRNDLGWYQQKPGKAPKRLIYAASSLESGVPSRFSGSGSGPEFTLTISSLQPEDFATYYCLQHNSYPLTFGGGTKVEIQ", "RESULT": "binds"}
{"BINDER": "269 (antibody, human IgG1, V domains shown, XENOMAX derived, recombinant human IgG1 kappa; also called 269Ab; SC269) VH: EVQLVESGGGLIQPGGSLRLSCAASEFTVSRNYMSWVRQAPGKGLEWVSVIYSGDRTYYADSVKGRFTISRDNSKNTLYLQMNSLRAEDTAVYYCARGEGGFDYWGQGTLVTVSS VL: EIVMTQSPATLSVSPGERATLSCRASQSVSSNLAWYQQKPGQAPRLLIHGASIRATGLPARFSGSGSGTEFTLTISSLQSEDFAVYYCQQYNYWWTFGQGTKVEIK", "RESULT": "binds"}
{"BINDER": "282 (antibody, human IgG1, V domains shown, XENOMAX derived, recombinant human IgG1 kappa; also called 282 Ab; SC282) VH: QVQLVESGGGVVQPGRSLRLSCAASGFTVSSYGMHWVRQAPGKGLEWVAVIWSNGSNKYYADSVKGRFTISRDNSKNTLYLQMNSLRAEDTAVYYCARDNGVYVGYAYYYGMDVWGQGTTVTVSS VL: DIQMTQSPSSLSASVGDRVTITCRASQGIRNDLGWYQQKPGKAPKRLIYAASSLHSGVPSRFSGSGSGTEFTLTISSLQPEDFATYYCLQHNSYPWTFGQGTKVEIK", "RESULT": "binds"}

These measurements were taken from patent US20050049402A1.
